# assay name: amyloid nucleation score (Sup35N fusion, yeast selection) (log enrichment); library NNK1; higher = more nucleation; inactive = no reads after selection;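 note: zero at mode of non-aggregating sequences after 7 days selection at 30°C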
Please note: yes applies when amyloid nucleation score is -0.1 or greater, and no applies otherwise.

substance	cat
FVLLNLPLVKRVCRIVGYWG	no
DSTILNSLSPVWPRSATGPS	no
LWVVPLE	no
VKMYRAFIQGYGSLDRRQFP	yes
GHLQGPLSTLIHDW	yes
GRLPLTKWASMTRVLMYLLR	yes
KPERICLWLVVKRYSMVHLW	yes
KFRDPYCKHRWAGLGKQSGD	yes
PNDPGKLSHGVSVVLYFDEL	yes
MAVERLGSQVERDIRGWWRV	yes
NNSSIVFLW	yes
RWDYDWNQVSCNDSRIGKLT	yes
SMEGLMSLMHSRISRFVFRV	yes
VLPFSLFAYAACFVLTLTYV	yes
VYGSPPNMWNVV	yes
TENVLLTYVFYAKSRLGSVV	yes
RLTVTADWHHHWRLVRQFKA	yes
HYVKVRFRNRSVVYALIGGV	yes
IHHSLHYPLYSWKSNWRTWG	no
FKLGFGVYIVVGKEGFVVSR	yes
MSPLYNDFWYSCRIYKGEVM	yes
MRYMCVRY	yes
SSRFVWIASKINILYNFQTY	no
KMSAWQFGGHVLCNARMGYE	no
FVYDFNGKKFLGLSCALYII	yes
RNNEDGRLKDRRRGLSHGQG	no
AVTCSPPGPMQGLTFLFMAL	no
GIWPLGFGKFGSIFRFANVR	yes
RDFWVSRTALMGGYWCWL	no
PFLYIDSF	no
DVAPLGCGEPCYGSY	no
LYFGNTGKGNFRQVSRLKHS	yes
TTTCMRYGLIVC	yes
RDTICITL	yes
PIHYEPSKAVYYTQFRGGMG	no
MYLITGKIARNAKTDSPGSN	no
NVHVFRNRSEITFKRASSWE	yes
WVLVIVLLRRWHHRDGAGQS	yes
VKLTNLGFRGKFDVVDCHWI	no
YYVFITIYVVSLVCNLSCYF	no
SFDRCCRGFAWISYGEQTAY	yes
SEMGYPGWTGKERKRLSNWA	no
QCRILAHAGLLPSGTCPMWL	no
CFFPVSPFFIIRGKIQIFYL	no
HSCYLANCLSRVQGSKRDTE	no
YLQFVRQRVCWLRLRPMMKA	no
SWDEAVSWHSRSVVSAGGVA	no
ASSGPAIYFNGRQRTFYYSD	yes
LAMSSQSHYCKRRSVCRKSV	yes
TNFFGSPCAMCNFSLDICSK	yes
GSCDMKVVVKCHCEYGMKQD	yes
WHASNFLTSSSHKMSSNWTS	yes
NFGLPMYYFANDLESTDVVS	no
TDGQWMSYSFSAFASYVVLG	no
TRQRKDGYADRMQYNSPLRR	yes
TMDDYPLDLHCWAGS	yes
TFNVVNPMVTYN	no
FSYNVVLRFSLRISSNYFAS	no
